Numbers sourced from patent US9580390B2.

# System: TICs (Ovarian 2393A)
# protocol.notes: Ovarian tumor-initiating cell growth inhibition (Alamar Blue)
# Type: cell-based
# test.conditions: 144 h; Ovarian 2393A TICs, 6 days; read-out: Tumor Initiating Cell GI50 Range Ovarain 2393A
# Lookup of reported GI50 keyed by entry

compound: O=C(NCC1(N2CCOCC2)CCCCC1)c1ccc2[nH]nc(-c3ccc(N4CCN(CCO)CC4)cc3)c2c1
GI50: 0.1 to 0.5 µM

compound: CC1=CC2(CCN(C)CC2)Oc2ccc(-c3n[nH]c4ccc(C(=O)N[C@H](c5ccccc5Cl)C(C)C)cc34)cc21
GI50: < 0.1 µM

compound: CC(C)[C@H](NC(=O)c1ccc2[nH]nc(-c3ccc(N4C5CCC4CC(O)C5)cc3)c2c1)c1ccccc1Cl (stereo partly drawn)
GI50: < 0.1 µM

compound: CN1C2CCC1CC(Oc1ccc(-c3n[nH]c4ccc(C(=O)N[C@H](c5ccccc5)C5CC5)cc34)cc1)C2 (stereo partly drawn)
GI50: 0.1 to 0.5 µM

compound: CC(C)C[C@H](NC(=O)c1ccc2[nH]nc(-c3ccc(N4C5CCC4CC(O)C5)cc3)c2c1)c1ccccc1 (stereo partly drawn)
GI50: 0.1 to 0.5 µM

compound: CC(C)[C@@H](NC(=O)c1ccc2[nH]nc(-c3ccc(OC4CC5CCC(C4)N5C)cc3)c2c1)c1ccccc1Cl (stereo partly drawn)
GI50: 0.1 to 0.5 µM

compound: CC(C)[C@@H](NC(=O)c1ccc2[nH]nc(-c3ccc(OC4CCN(C)CC4)cc3)c2c1)c1ccccc1Cl
GI50: 0.1 to 0.5 µM

compound: O=C(N[C@@H](c1ncccc1Cl)C1CC1)c1ccc2[nH]nc(-c3ccc(OC4CCN(C5COC5)CC4)cc3)c2c1
GI50: 0.1 to 0.5 µM

compound: CC(C)C[C@H](NC(=O)c1ccc2[nH]nc(-c3ccc(N4C5CCC4CC(O)C5)cc3)c2c1)c1ccccn1 (stereo partly drawn)
GI50: < 0.1 µM

compound: O=C(N[C@H](c1ccccc1F)C1CC1)c1ccc2[nH]nc(-c3ccc(N4CCN(C5COC5)CC4)cc3)c2c1
GI50: < 0.1 µM

compound: O=C(N[C@@H](c1ccccc1F)C1CC1)c1ccc2[nH]nc(-c3ccc(N4C5CCC4CC(O)C5)cc3)c2c1 (stereo partly drawn)
GI50: < 0.1 µM

compound: O=CN1C2CCC1CC(Oc1ccc(-c3n[nH]c4ccc(C(=O)N[C@H](c5ccccc5)C5CC5)cc34)cc1)C2 (stereo partly drawn)
GI50: 0.1 to 0.5 µM

compound: O=C(NCC1(N2CCOCC2)CCCCC1)c1ccc2[nH]nc(-c3ccc(N4CCNCC4)cc3)c2c1
GI50: 0.1 to 0.5 µM

compound: CN1CCC(Oc2ccc(-c3n[nH]c4ccc(C(=O)NC(c5ccccc5)C5CC5)cc34)cc2S(C)(=O)=O)CC1 (stereo not drawn)
GI50: > 0.5 µM

compound: O=C(N[C@@H](c1ccccn1)C1CC1)c1ccc2[nH]nc(-c3ccc(N4[C@@H]5CC[C@H]4COC5)cc3)c2c1
GI50: 0.1 to 0.5 µM

compound: CN1C2CCC1CC(Oc1ccc(-c3n[nH]c4ccc(C(=O)N[C@H](c5ccccc5Cl)C5CC5)cc34)cc1)C2 (stereo partly drawn)
GI50: < 0.1 µM

compound: CN1CCC2(CC1)CC(=O)c1cc(-c3n[nH]c4ccc(C(=O)N[C@H](c5ccccn5)C5CC5)cc34)ccc1O2
GI50: 0.1 to 0.5 µM

compound: O=CN1C2CCC1CC(Oc1ccc(-c3n[nH]c4ccc(C(=O)N[C@H](c5ccccc5Cl)C5CC5)cc34)cc1)C2 (stereo partly drawn)
GI50: < 0.1 µM

compound: O=C(N[C@H](c1ccccn1)C1CCCC1)c1ccc2[nH]nc(-c3ccc(N4CCN(C5COC5)CC4)cc3)c2c1
GI50: < 0.1 µM

compound: CN1CCC(Oc2ccc(-c3n[nH]c4ccc(C(=O)N[C@H](c5ccccn5)C5CC5)cc34)cc2)CC1
GI50: < 0.1 µM

compound: CN1[C@@H]2CC[C@H]1C[C@@H](Oc1ccc(-c3n[nH]c4ccc(C(=O)NC(c5ccsc5)C5CCC5)cc34)cc1)C2 (stereo partly drawn)
GI50: 0.1 to 0.5 µM

compound: CC1=CC2(CCN(C)CC2)Oc2ccc(-c3n[nH]c4ccc(C(=O)N[C@H](c5ccccn5)C5CCCC5)cc34)cc21
GI50: < 0.1 µM

compound: CC(C)[C@H](NC(=O)c1ccc2[nH]nc(-c3ccc(OC4CC5CCC(C4)N5C)cc3)c2c1)c1ccccc1Cl (stereo partly drawn)
GI50: 0.1 to 0.5 µM

compound: CC(C)C[C@@H](NC(=O)c1ccc2[nH]nc(-c3ccc(N4C5CCC4CC(O)C5)cc3)c2c1)c1ccccn1 (stereo partly drawn)
GI50: < 0.1 µM

compound: O=C(N[C@H](c1ccccc1)C1CC1)c1ccc2[nH]nc(-c3ccc(N4C5CCC4CC(O)C5)cc3)c2c1 (stereo partly drawn)
GI50: < 0.1 µM

compound: CC(C)C[C@H](NC(=O)c1ccc2[nH]nc(-c3ccc(N4CC(N5CCOCC5)C4)cc3)c2c1)c1ccccc1Cl
GI50: 0.1 to 0.5 µM

compound: CC(C)[C@H](NC(=O)c1ccc2[nH]nc(-c3ccc(OC4CCN(C[C@@H](O)C(F)(F)F)CC4)cc3)c2c1)c1ccccc1Cl
GI50: 0.1 to 0.5 µM
